// reported pEC50 for each item listed
Test system: recombinant human ALX receptor (Homo sapiens, UniProt P25090)
Sequence (P25090 whole entry): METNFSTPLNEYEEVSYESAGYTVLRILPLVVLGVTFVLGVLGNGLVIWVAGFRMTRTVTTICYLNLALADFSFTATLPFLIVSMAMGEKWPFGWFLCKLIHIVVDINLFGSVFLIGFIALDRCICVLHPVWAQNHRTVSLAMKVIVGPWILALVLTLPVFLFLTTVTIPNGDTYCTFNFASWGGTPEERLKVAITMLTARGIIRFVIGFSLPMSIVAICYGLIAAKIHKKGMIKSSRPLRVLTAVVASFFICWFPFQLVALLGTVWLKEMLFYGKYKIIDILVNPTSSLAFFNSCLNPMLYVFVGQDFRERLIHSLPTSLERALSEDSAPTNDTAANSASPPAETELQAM
Assay info: Intracellular calcium measurements (FLIPR), ALX receptor agonistic activity
Condition notes: HEK293-hALXR-Gα16 cells, Fluo-4 calcium signal, normalized to WKYMVm 10 nM
pEC50 (log units): -log10 of the concentration in mol/L.

COc1ccc(C[C@@H](NC(=O)NCc2ccncc2)c2nc3ccccc3[nH]2)cc1 [Example 288] :: 6.07
COc1ccc(C[C@@H](NC(=O)NCc2cccc(C(F)(F)F)c2Cl)c2nc3ccccc3[nH]2)cc1 [Example 273] :: 6.63

Attention now shifts to the item below.
Recorded result, COc1ccc(C[C@@H](NC(=O)N[C@H]2CC[C@H](O)CC2)c2nc3ccc(C#N)cc3[nH]2)cc1 [Example 152] , pEC50: 8.21

Where do these numbers come from? They come from patent US9663473B2.
